- measurementTarget: Gamma-butyrobetaine dioxygenase (Pseudomonas sp. (strain AK-1), UniProt P80193)
- Sequence (P80193 whole entry): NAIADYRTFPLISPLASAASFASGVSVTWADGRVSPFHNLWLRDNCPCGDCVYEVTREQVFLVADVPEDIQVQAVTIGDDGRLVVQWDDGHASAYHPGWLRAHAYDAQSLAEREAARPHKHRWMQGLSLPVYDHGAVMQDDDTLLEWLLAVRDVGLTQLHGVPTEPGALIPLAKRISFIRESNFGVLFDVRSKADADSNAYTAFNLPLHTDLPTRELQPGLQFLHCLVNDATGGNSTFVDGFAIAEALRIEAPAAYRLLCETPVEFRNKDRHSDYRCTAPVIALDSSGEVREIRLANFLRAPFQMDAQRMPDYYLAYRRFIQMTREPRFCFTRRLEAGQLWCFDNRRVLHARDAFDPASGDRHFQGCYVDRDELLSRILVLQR
- protocol: Inhibition of Pseudomonas sp. AK1 BBOX assessed as hydroxylation of GBB to L-carnitine measured for 60 sec in presence of 2OG and Fe2+ by 1H NMR assay
pIC50: −log10 of the molar value.
readoutName: pIC50

[[record]]
smilesrecord = "CC(C)[C@@H](NC(=O)c1nc(Cl)c2ccccc2c1O)C(=O)O"
resultvalue = 3.72

[[record]]
smilesrecord = "O=C(O)CC[C@@H](NC(=O)c1nc(Cl)c2ccccc2c1O)C(=O)O"
resultvalue = 4.07

[[record]]
smilesrecord = "O=C(O)CC[C@H](NC(=O)c1nc(Cl)c2ccccc2c1O)C(=O)O"
resultvalue = 4.66

